tested-system: CD73 activity in MDA-MB-231-GFP cells (Homo sapiens)
Construct: endogenous in cells; host or cells: MDA-MB-231-GFP cells
Sequence (P21589 27-549): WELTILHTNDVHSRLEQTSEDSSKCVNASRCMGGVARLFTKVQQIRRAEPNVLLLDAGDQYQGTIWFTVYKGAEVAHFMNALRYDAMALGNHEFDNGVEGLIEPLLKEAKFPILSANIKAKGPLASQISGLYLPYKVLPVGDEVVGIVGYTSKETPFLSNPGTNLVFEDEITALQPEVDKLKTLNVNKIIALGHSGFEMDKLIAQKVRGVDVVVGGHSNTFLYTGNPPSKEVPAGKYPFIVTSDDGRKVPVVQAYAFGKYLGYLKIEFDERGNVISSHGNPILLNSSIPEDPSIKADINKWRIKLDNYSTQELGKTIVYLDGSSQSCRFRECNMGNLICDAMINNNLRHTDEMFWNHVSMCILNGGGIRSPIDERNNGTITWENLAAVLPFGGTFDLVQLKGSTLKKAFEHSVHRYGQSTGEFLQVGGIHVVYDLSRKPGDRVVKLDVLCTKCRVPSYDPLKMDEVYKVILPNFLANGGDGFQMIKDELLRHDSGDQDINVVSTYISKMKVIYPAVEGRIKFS
experiment-notes: MDA-MB-231 Cell Based CD73 Activity Assay (DMEM)
stated-conditions: 3000 cells per well, DMEM medium with 10% human plasma, overnight compound treatment, AMP 200 uM
Consider the following molecules; for each one, report its EC50.
One number for each entry, in µM.

Completed entries (count: 5):
{"molecule": "N#Cc1cc([C@H]2C[C@@H]2c2cc(-c3c[nH]c(=O)[nH]c3=O)nn3ccnc23)ccc1C(F)(F)F (racemic)", "units-symbol": "µM", "EC50": 0.0383}
{"molecule": "O=c1[nH]cc(-c2cc([C@H]3C[C@@H]3c3ccn(C(F)F)n3)c3nccn3n2)c(=O)[nH]1 (racemic)", "units-symbol": "µM", "EC50": 0.0275}
{"molecule": "O=c1[nH]cc(-c2cc(N3C[C@@H](O)C(F)(F)C3)c3nccn3n2)c(=O)[nH]1 (single isomer, unassigned)", "units-symbol": "µM", "EC50": 0.0129}
{"molecule": "CN(C)C(=O)c1cn2nc(-c3c[nH]c(=O)[nH]c3=O)cc([C@H]3C[C@@H]3c3ccc(F)cc3)c2n1 (racemic)", "units-symbol": "µM", "EC50": 0.0302}
{"molecule": "O=c1[nH]cc(-c2cc([C@H]3C[C@@H]3c3cccc4cnccc34)c3nccn3n2)c(=O)[nH]1 (racemic)", "units-symbol": "µM", "EC50": 0.306}

Next molecule, please.
Notebook: N#Cc1ccc([C@H]2C[C@@H]2c2cc(-c3c[nH]c(=O)[nH]c3=O)nn3ccnc23)cc1C(F)(F)F (racemic) , EC50 read as 0.0426

----------
tested-system: CD73 activity in MDA-MB-231-GFP cells (Homo sapiens)
Construct: endogenous in cells; host or cells: MDA-MB-231-GFP cells
experiment-notes: MDA-MB-231 Cell Based CD73 Activity Assay (DMEM)
stated-conditions: 3000 cells per well, DMEM medium with 10% human plasma, overnight compound treatment, AMP 200 uM
measured-property: pEC50
One number for each entry, as −log10 of the molar value.

Batch lookup, pEC50 per entry.
1. NC(=O)c1ccc([C@H]2C[C@@H]2c2cc(-c3c[nH]c(=O)[nH]c3=O)nn3ccnc23)cc1 (racemic)
2. O=C(c1cccc([C@H]2C[C@@H]2c2cc(-c3c[nH]c(=O)[nH]c3=O)nn3ccnc23)c1)N1CC(F)(F)C1 (racemic)
3. Cn1ncc2ccc([C@H]3C[C@@H]3c3cc(-c4c[nH]c(=O)[nH]c4=O)nn4ccnc34)cc21 (racemic)
4. O=c1[nH]cc(-c2cc([C@H]3C[C@@H]3c3c(F)ccc(F)c3F)c3nccn3n2)c(=O)[nH]1 (racemic)

Reply:
[8.56, 8.88, 8.58, 7.88]

----------
tested-system: CD73 (Homo sapiens)
Construct: purchased R&D system
Sequence (P21589 27-549): as above
Type: biochemical
stated-conditions: 1 mM NaH2PO4 in enzyme buffer, final AMP 15 uM, final CD73 0.3 nM
measured-property: pIC50
Numbers only, as −log10 of the molar value.

{"molecule": "O=c1[nH]cc(-c2cc([C@H]3C[C@@H]3c3ccc(OCC(F)F)cn3)c3nccn3n2)c(=O)[nH]1 (racemic)", "tested-system": "CD73 (Homo sapiens)", "measured-result": 8.98}
{"molecule": "O=c1[nH]cc(-c2cc([C@@H]3C[C@H]3c3ccc(F)c(F)c3)c3nccn3n2)c(=O)[nH]1 (racemic)", "tested-system": "CD73 (Homo sapiens)", "measured-result": 9.03}
{"molecule": "N#Cc1nn(CC(F)(F)F)c2cc([C@H]3C[C@@H]3c3cc(-c4c[nH]c(=O)[nH]c4=O)nn4ccnc34)ccc12 (racemic)", "tested-system": "CD73 (Homo sapiens)", "measured-result": 8.53}
{"molecule": "O=c1[nH]cc(-c2cc([C@H]3C[C@@H]3c3cnc4cnn(CC(F)(F)F)c4c3)c3nccn3n2)c(=O)[nH]1 (racemic)", "tested-system": "CD73 (Homo sapiens)", "measured-result": 8.69}
{"molecule": "O=C(NCC(F)(F)F)OC1CN(c2cc(-c3c[nH]c(=O)[nH]c3=O)nn3ncnc23)CC1(F)F (racemic)", "tested-system": "CD73 (Homo sapiens)", "measured-result": 9.89}
{"molecule": "O=c1[nH]cc(-c2cc([C@H]3C[C@@H]3c3ccc(C(F)(F)F)cc3)n3ncnc3n2)c(=O)[nH]1", "tested-system": "CD73 (Homo sapiens)", "measured-result": 9.06}

Batch lookup, pIC50 per entry.
1. O=c1[nH]cc(-c2cc([C@H]3C[C@@H]3c3ccc4c(c3)ncn4CC(F)(F)F)c3nccn3n2)c(=O)[nH]1
2. O=c1[nH]cc(-c2cc([C@H]3C[C@@H]3c3ccc4cnn(CCC(F)(F)F)c4c3)c3nccn3n2)c(=O)[nH]1 (racemic)
3. O=c1[nH]cc(-c2cc(N3CC(OCC(F)(F)F)C(F)(F)C3)c3nccn3n2)c(=O)[nH]1 (centres unmarked)

Reply:
[8.94, 8.57, 8.52]

Batch lookup, pIC50 per entry.
1. O=c1[nH]cc(-c2cc(N3CCC4(C3)CC4(F)F)c3nccn3n2)c(=O)[nH]1 (centres unmarked)
2. O=c1[nH]cc(-c2cc([C@@H]3C[C@H]3c3ccc(OC(F)(F)F)cc3)c3nccn3n2)c(=O)[nH]1 (racemic)
3. O=c1[nH]cc(-c2cc([C@H]3C[C@@H]3c3cnc(C(F)(F)F)s3)c3nccn3n2)c(=O)[nH]1 (racemic)

Reply:
1: 8.19; 2: 8.56; 3: 8.12
